# Test system: antibodies in sera from SARS patients (sera 1a, 1b, 2, 6, 37, 62, London, SARS-yellow, SARS-green)
# Type: binding, human
Response key: Yes means Binding of serum 2 to looped/cyclic peptide (PEPSCAN-ELISA) >= 0.4; No means Binding of serum 2 to looped/cyclic peptide (PEPSCAN-ELISA) < 0.4.

Solved entries:
Residue sequence | Group label
HLLLVAAGMEAQFLY | Yes
IYFLQCINACRIIMR | Yes
AFLAVFQSATKIIAL | Yes
LYKGFQFICNLLLLF | No

Field: next sequence
Is the recorded value of Binding of serum 2 to looped/cyclic peptide (PEPSCAN-ELISA) equal to or greater than 0.4 for this sequence? `VIGVAFLAVFQSATK`
No

src = patent US20070128217A1
